- target: Parkinson's disease protein 7 (PARK7/DJ1) (human, UniProt Q99497)
- Sequence (Q99497 whole entry, looked up): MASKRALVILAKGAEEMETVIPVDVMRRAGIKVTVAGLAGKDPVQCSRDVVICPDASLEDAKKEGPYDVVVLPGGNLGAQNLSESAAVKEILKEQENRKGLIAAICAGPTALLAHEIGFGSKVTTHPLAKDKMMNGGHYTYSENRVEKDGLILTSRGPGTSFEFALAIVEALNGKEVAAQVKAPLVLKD
- method-description: primary screen, percent inhibition; higher = more effect of the substance
- recorded-conditions: 100 µM
Out of some 7,900 compounds screened, about 400 (5.1%) showed an effect of 50% or more. The full list was thinned out, with strong results kept by preference.
measured-parameter: Inhibition % (%)
Note: unit % is implicit; provide only the numeric part.

// worked examples, Inhibition % included
C=CC(=O)N1CCN(CC(C)C)C(=O)C1 = 0.18
O=C(NCC12CCCN1CCC2)c1cccc(S(=O)(=O)F)c1 = 86.4
C=CC(=O)NCc1nnc(C2CC2)o1 = 6.84

Input COc1c(C)cc(S(=O)(=O)n2nc(C)cc2C)c(C)c1C , output reported Inhibition %. 7.42

Input COc1ccc(NS(=O)(=O)C=Cc2ccccc2)cn1 , output reported Inhibition %. 59.9

Input CCC1(CNS(=O)(=O)C=Cc2ccccc2)CCOCC1 , output reported Inhibition %. 6.07

---

- target: Parkinson's disease protein 7 (PARK7/DJ1) (human)
- method-description: primary screen, percent inhibition; higher = more effect of the substance
- recorded-conditions: 100 µM
Screen size: about 7,900 compounds; about 400 (5.1%) showed an effect of 50% or more. The sample holds strong results, similar compounds and a random draw of the others, so the mix is not that of the screen.
measured-parameter: Inhibition %
Answer as a quantity: numeral, then unit.

// worked examples, Inhibition % included
C=CC(=O)NC[C@H]1CC[C@H](c2ccccc2)O1 = 2.73%
O=C(O)c1cccc(NS(=O)(=O)C=Cc2ccccc2)c1 = -0.0382%
Cc1ccc(C=CS(=O)(=O)NCCC(=O)O)cc1 = 5.97%
CC(Cl)Cc1cc2ccc(O)cc2oc1=O (centres unmarked) = 12.3%
CC(=O)Nc1c(C)cc(C)c(C(=O)CCl)c1C = 14%
C=CC(=O)NCCCC(=O)N1CCc2sccc2C1 = 10.7%

Input O=C(CCl)Nc1ccc(S(=O)(=O)N2CCOCC2)cc1 , output reported Inhibition %. 87.4%

Input CC(C)c1ccc(NC(=O)Cn2cnc(C#N)n2)cc1 , output reported Inhibition %. 22.6%

---

- target: Parkinson's disease protein 7 (PARK7/DJ1) (human)
- method-description: primary screen, percent inhibition; higher = more effect of the substance
- recorded-conditions: 100 µM
Screen size: about 7,900 compounds; about 400 (5.1%) showed an effect of 50% or more. The full list was thinned out, with strong results kept by preference.
// label = criterion met if Inhibition % is not less than 10%, otherwise criterion not met

Some solved cases for reference:
C=CC(=O)N1CCC(CNC(C)=O)CC1 = criterion met
Cn1cc(C(=O)CCl)cc1C(N)=O = criterion not met

Now consider a different molecule.
Is it the case that CN(C)C(=O)c1ccc(NC(=O)CCl)cc1 has Inhibition % reaching or exceeding 10%? criterion met

---

- target: Parkinson's disease protein 7 (PARK7/DJ1) (human, UniProt Q99497)
- method-description: primary screen, percent inhibition; higher = more effect of the substance
- recorded-conditions: 100 µM
The whole screen tested about 7,900 compounds, of which about 400 (5.1%) showed an effect of 50% or more. This excerpt belongs to a sample that is enriched for strong results.
// label = Y if Inhibition % is not less than 30%, otherwise N

Is it the case that CC1(C)OB(c2ccc(OCCc3ccccn3)cc2)OC1(C)C has Inhibition % reaching or exceeding 30%? N

Is it the case that CN(c1cnn(C)c1)S(=O)(=O)c1ccccc1S(=O)(=O)F has Inhibition % reaching or exceeding 30%? Y

Is it the case that CN(c1ccn(C)n1)S(=O)(=O)c1ccccc1S(=O)(=O)F has Inhibition % reaching or exceeding 30%? Y

Is it the case that CC(=O)Nc1nn(C)cc1S(=O)(=O)F has Inhibition % reaching or exceeding 30%? N

Is it the case that Cn1cc(S(=O)(=O)F)c(N)n1 has Inhibition % reaching or exceeding 30%? N

---

- target: Parkinson's disease protein 7 (PARK7/DJ1) (human)
- method-description: primary screen, percent inhibition; higher = more effect of the substance
- recorded-conditions: 100 µM
The campaign covered roughly 7,900 compounds. About 400 (5.1%) showed an effect of 50% or more. For the sample, strong results were picked, then their nearest neighbours and some compounds at random.
Classification field. Basis: Inhibition %. Definitions: low (below 6%), middle (6% to below 9%), high (9% or more)

Some solved cases for reference:
CCOc1cc(C)c(C(C)C)cc1S(=O)(=O)n1ccnc1 = middle
COc1ccc(-c2ccncc2)cc1B(O)O = middle

Now consider a different compound.
Just checking, what class would you give COC(=O)c1ccc(S(=O)(=O)F)cc1F here? low

---

Documented Inhibition % across a set of molecules
- target: Parkinson's disease protein 7 (PARK7/DJ1) (human)
- method-description: primary screen, percent inhibition; higher = more effect of the substance
- recorded-conditions: 100 µM
About 400 (5.1%) of roughly 7,900 compounds showed an effect of 50% or more. The list comes from a sample in which strong results are over-represented; it also holds close analogues and randomly drawn compounds.
Answer as a quantity: numeral, then unit.

// worked examples, Inhibition % included
O=C(CCl)N1c2ccccc2NC(=O)C12CCCC2 = 42.3%
C=CC(=O)N[C@H](C(=O)O)c1ccccc1 = 3.77%
Cc1ccc(C(=O)CCl)s1 = 28.1%

Give Parkinson's disease protein 7 (PARK7/DJ1) (human) Inhibition % for the following molecule: C=CC(=O)NC1CCCc2c1cnn2CC (centres unmarked) 8.99%

Give Parkinson's disease protein 7 (PARK7/DJ1) (human) Inhibition % for the following molecule: O=C(CCl)c1ccc(CC(=O)N2CCOCC2)s1 7.37%

Give Parkinson's disease protein 7 (PARK7/DJ1) (human) Inhibition % for the following molecule: O=C(CCl)NCc1ccc(Cl)s1 15.9%

Give Parkinson's disease protein 7 (PARK7/DJ1) (human) Inhibition % for the following molecule: O=C(CCl)Nc1nc2ccc([N+](=O)[O-])cc2s1 6.68%

Give Parkinson's disease protein 7 (PARK7/DJ1) (human) Inhibition % for the following molecule: C=CC(=O)N1CCC2COCC2C1 (centres unmarked) 6.41%

Give Parkinson's disease protein 7 (PARK7/DJ1) (human) Inhibition % for the following molecule: O=C(CCl)NCCc1cccs1 31.1%

Give Parkinson's disease protein 7 (PARK7/DJ1) (human) Inhibition % for the following molecule: NC(=O)Cc1ccc(C(=O)CCl)s1 97.4%

---

- target: Parkinson's disease protein 7 (PARK7/DJ1) (human, UniProt Q99497)
- method-description: primary screen, percent inhibition; higher = more effect of the substance
- recorded-conditions: 100 µM
Hit rate of the full screen: of about 7,900 compounds, about 400 (5.1%) showed an effect of 50% or more. What follows is part of a selection rich in strong results, with near analogues and random picks from the rest.
measured-parameter: Inhibition % (%)
Note: unit % is implicit; provide only the numeric part.

// worked examples, Inhibition % included
O=C(CCCl)N1CCc2ccccc21 = 3.9
Cn1ccc(NS(=O)(=O)C=Cc2ccc(Cl)cc2)n1 = 11.2
O=C(CCl)Nc1ccc2c(c1)OCCCO2 = 57.7

Input O=C(CCl)Nc1ccc2c(c1)OCCO2 , output reported Inhibition %. 55

Input CC(=O)Nc1ccc(OC(=O)N(C)C)cc1 , output reported Inhibition %. 10.8

Input Cc1ccc2ccccc2c1B(O)O , output reported Inhibition %. 0.986

Input C=CC(=O)Nc1cccc(C(F)F)c1 , output reported Inhibition %. 6.09

---

- target: Parkinson's disease protein 7 (PARK7/DJ1) (human)
- method-description: primary screen, percent inhibition; higher = more effect of the substance
- recorded-conditions: 100 µM
Hit rate of the full screen: of about 7,900 compounds, about 400 (5.1%) showed an effect of 50% or more. This excerpt belongs to a sample that is enriched for strong results.
Documented Inhibition % across a set of molecules
Note: unit % is implicit; provide only the numeric part.

Cc1nn(C)c(Cl)c1C=CC(=O)N1CCC(N)C1.Cl (stereo not drawn) = 17.1
Cc1cnccc1NS(=O)(=O)c1ccc(S(=O)(=O)F)cc1 = 18.9
O=S(=O)(F)c1cccc(S(=O)(=O)Nc2ncccn2)c1 = 16.8
O=S(=O)(F)c1ccc(S(=O)(=O)Nc2cccnc2O)cc1 = 8.42
Cc1nc(NS(=O)(=O)c2ccc(S(=O)(=O)F)cc2)no1 = 22.7

Please examine the following record next.
Input Cn1nccc1NS(=O)(=O)c1cccc(S(=O)(=O)F)c1 , output reported Inhibition %. 89.5

---

- target: Parkinson's disease protein 7 (PARK7/DJ1) (human)
- method-description: primary screen, percent inhibition; read as competition with a fluorescent probe by fluorescence polarization; higher = more effect of the substance
- recorded-conditions: 100 µM
In all, about 7,900 compounds went through this assay and about 400 (5.1%) showed an effect of 50% or more. The list comes from a sample in which strong results are over-represented; it also holds close analogues and randomly drawn compounds.
// label = yes if Inhibition % is not less than 10%, otherwise no

Some solved cases for reference:
O=C(CCl)N(C1CCCCC1)C1CCS(=O)(=O)C1 (stereo not shown) = no
CSc1ccc(C(=O)CCl)cc1NC(C)=O = yes
O=C(CCl)Nc1ccccc1C(=O)Nc1ccccc1 = yes

Is it the case that CC(=O)Nc1ccc(S(=O)(=O)F)cc1 has Inhibition % reaching or exceeding 10%? yes

Is it the case that Cl.Cl.O=C(O)C1CCN(C(=O)C=Cc2nc3ccccc3s2)C1 (stereo not shown) has Inhibition % reaching or exceeding 10%? no
